# SUBJECT_OF_TEST: Dimer of Gag-Pol polyprotein [489-587] (Human immunodeficiency virus 1, UniProt P12497)
# Construct: 489-587
# ASSAY_DETAILS: Protease Inhibition Assay
# EXPERIMENTAL_PARAMETERS: pH 5; 30 °C
ENDPOINT: Ki

// solved cases for Ki follow
O=C(N[C@H]1c2ccccc2C[C@H]1O)[C@H](OCc1ccc(F)cc1)[C@H](O)[C@@H](O)[C@@H](OCc1ccc(F)cc1)C(=O)N[C@H]1c2ccccc2C[C@H]1O | 5.39 nM
O=C(N[C@H]1c2ccccc2C[C@H]1O)[C@H](OCc1cccc(F)c1)[C@H](O)[C@@H](O)[C@@H](OCc1cccc(F)c1)C(=O)N[C@H]1c2ccccc2C[C@H]1O | 7.13 nM

Return reported Ki; argument: O=C(N[C@H]1c2ccccc2C[C@H]1O)[C@H](OCc1ccccc1F)[C@H](O)[C@@H](O)[C@@H](OCc1ccccc1F)C(=O)N[C@H]1c2ccccc2C[C@H]1O
3.26 nM

* * *

Listed below: Ki values for each entry.
# SUBJECT_OF_TEST: Dimer of Gag-Pol polyprotein [489-587] (Human immunodeficiency virus 1)
# Construct: 489-587
# ASSAY_DETAILS: Protease Inhibition Assay
# EXPERIMENTAL_PARAMETERS: pH 5; 30 °C
Return type: number; implicit unit nM.

These recorded examples may help you get a feel for the data.
O=C(N[C@H]1c2ccccc2C[C@H]1O)[C@H](OCc1ccc(F)cc1F)[C@H](O)[C@@H](O)[C@@H](OCc1ccc(F)cc1F)C(=O)N[C@H]1c2ccccc2C[C@H]1O | 1.65
O=C(N[C@H]1c2ccccc2C[C@H]1O)[C@H](OCc1cc(F)cc(F)c1)[C@H](O)[C@@H](O)[C@@H](OCc1cc(F)cc(F)c1)C(=O)N[C@H]1c2ccccc2C[C@H]1O | 5
O=C(N[C@H]1c2ccccc2C[C@H]1O)[C@H](OCc1cc(F)ccc1F)[C@H](O)[C@@H](O)[C@@H](OCc1cc(F)ccc1F)C(=O)N[C@H]1c2ccccc2C[C@H]1O | 3.29
O=C(N[C@H]1c2ccccc2C[C@H]1O)[C@H](OCc1c(F)cccc1F)[C@H](O)[C@@H](O)[C@@H](OCc1c(F)cccc1F)C(=O)N[C@H]1c2ccccc2C[C@H]1O | 1.64
O=C(N[C@H]1c2ccccc2C[C@H]1O)[C@H](OCc1ccc(F)c(F)c1)[C@H](O)[C@@H](O)[C@@H](OCc1ccc(F)c(F)c1)C(=O)N[C@H]1c2ccccc2C[C@H]1O | 3.9

Record lookup: for Dimer of Gag-Pol polyprotein [489-587] (Human immunodeficiency virus 1), what Ki belongs to O=C(N[C@H]1c2ccccc2C[C@H]1O)[C@H](OCc1cccc(F)c1F)[C@H](O)[C@@H](O)[C@@H](OCc1cccc(F)c1F)C(=O)N[C@H]1c2ccccc2C[C@H]1O ?
4

Query Ki on Dimer of Gag-Pol polyprotein [489-587] (Human immunodeficiency virus 1) for O=C(N[C@H]1c2ccccc2C[C@H]1O)[C@H](OCc1ccccc1)[C@H](O)[C@@H](O)[C@@H](OCc1ccccc1)C(=O)N[C@H]1c2ccccc2C[C@H]1O
1.22

Measured values drawn from BindingDB's records for doi:10.1021/jm001134q for this set.
